# Test system: K562;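 note: after 48 h exposure read by CellTiter-Glo luminescence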
# Assay overview: cell viability relative to vehicle control; higher = less cytotoxic
# Assay setup: 10 µM; SRSF2 genotype: SRSF2 P95H/wt
Metric: cell viability (%)
Write the number in % without appending the unit.

Determine its reported cell viability: O=C1CCCC(=O)C1C(=O)c1ccc(C(F)(F)F)cc1[N+](=O)[O-] 105

Answer with the recorded cell viability for the compound listed here: CC1C(=O)OC2C(O)C34C5CC(C(C)(C)C)C36C(OC(=O)C6O)OC4(C(=O)O5)C12O (configuration not stated) [Ginkgolide B] 110

Give the reported value of cell viability for this record: C=C(C)[C@@H]1CC[C@]2(C)CC[C@]3(C)[C@H](CC[C@@H]4[C@@]5(C)CC[C@H](O)C(C)(C)[C@@H]5CC[C@]43C)[C@@H]12 106

Item CC12CCC(CC1=O)C2(C)C (configuration not stated) : provide cell viability 102

Write down cell viability measured for item O=C1C=C2C=C[C@@H](O)[C@H](O)[C@H]2O1 [Griffonilide] 101

Fill in reported cell viability for this entry: CCOC(=O)C1OC1C(=O)NC(CC(C)C)C(=O)NCCC(C)C (configuration not stated) 103

// Input: O=c1c2ccccc2nc2n1CCc1c-2[nH]c2ccccc12 [Rutaecarpine (Rutecarpine)] . Output its cell viability only. 103

Respond only with cell viability recorded for CCOc1ccc2ccccc2c1C(=O)N[C@@H]1C(=O)N2[C@@H]1SC(C)(C)[C@@H]2C(=O)O [Nafcillin Sodium] 106

// fetch cell viability given entry CNc1cccc(CCOc2ccc3c(c2)CN(CC(F)(F)F)C(=O)[C@H](CC(=O)O)C3)n1 101

Return value of cell viability for input CN(N=O)C(=O)NC1C(O)OC(CO)C(O)C1O (configuration not stated) [Streptozotocin (STZ)] , no commentary. 103

Name the recorded cell viability of the compound listed here: OCCn1cc(-c2ccc3c(c2)CC/C3=N\O)c(-c2ccncc2)n1 110

Please look at this compound and report its cell viability: CC(C)(CO)n1cc(C(=O)c2cncc(NC(=O)Cc3ccc(Cl)cn3)c2)c2cnc(N)nc21 104
